Assayed Target: T1, CRTH2R (UniProt Q9Y5Y4 1-395, limits assumed)
T1 construct: whole, on cells; also called Prostaglandin D2 receptor 2 (DP2 or CRTH2) receptor
T1 sequence (looked up): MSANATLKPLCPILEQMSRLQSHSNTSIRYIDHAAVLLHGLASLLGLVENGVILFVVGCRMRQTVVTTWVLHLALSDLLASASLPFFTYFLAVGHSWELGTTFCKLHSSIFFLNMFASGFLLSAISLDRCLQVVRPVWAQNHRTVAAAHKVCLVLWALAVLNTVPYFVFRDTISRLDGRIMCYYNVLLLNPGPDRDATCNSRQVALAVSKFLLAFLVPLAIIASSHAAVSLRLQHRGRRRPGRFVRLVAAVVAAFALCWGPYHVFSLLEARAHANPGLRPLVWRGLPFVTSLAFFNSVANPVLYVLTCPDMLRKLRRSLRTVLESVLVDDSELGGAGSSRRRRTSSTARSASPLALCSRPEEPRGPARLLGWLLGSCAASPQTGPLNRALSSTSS
Protocol: flow cytometry (MFI), CHO CRTH2R-positive cells against parental CHO cells, 3-fold titration from 100 nM; grey = CRTH2R cells, black = parental cells (no legend on the panel)
Property Name: EC50 (nM)
Value expressed in nM; do not type the unit.

Take a look at these entries with their results.
CRTH2-19 (antibody, V domains shown, CRTH2R IgG) VH: QVQLVQSGAEVKKPGSSVKVSCKASGGTFSSHAINWVRQAPGQGLEWMGRIIPIVGTTTYAQKFQGRVTITADESTSTAYMELSSLRSEDTAVYYCARDMYYDFDYFGLTLTGDRNDDEVVPADDAFDIWGQGTLVTVSS VL: QSALTQPASVSGSPGQSITISCTGTSSDVGGYDYVTWYQQHPGKAPKLMIYDVDTRPSGVSNRFSGSKSGNTASLTISGLQAEDEADYYCSSYTTSTSYVFGGGTKLTVL :: 16.7
CRTH2-9 (antibody, V domains shown, CRTH2R IgG) VH: QVQLVQSGAEVKKPGSSVKVSCKASGGTFSSYAISWVRQAPGQGLEWMGGIIPIFGTANYAQKFQGRVTITADESTSTAYMELSSLRSEDTAVYYCARDMYYDFWLGDQSTGSLIGAEVVPADDAFDIWGQGTLVTVSS VL: QSVLTQPPSVSAAPGQKVTISCSGSTSNIGNNYVSWYQQLPGTAPKLLIYENDERPSGIPDRFSGSKSGTSATLGITGLQTGDEADYYCATWDTRLSAVVFGGGTKLTVL :: 14.9

Next item in the queue.
Request: Which EC50 value is on record for CRTH2-32 (antibody, V domains shown, CRTH2R IgG) VH: QVQLVESGGGVVQPGRSLRLSCAASGFTFSKHGMHWVRQAPGKGLEWVAFISYEGSEKYYADSVKGRFTISRDNSKNTLYLQMNSLRAEDTAVYYCARDMYYDFHYSTVGATYYYYLGSETEVVPADDAFDIWGQGTLVTVSS VL: QSALTQPASVSGSPGQSITISCTGTSSGVGGYDYVSWYQQHPGKAPKLMIYDDNNRPSGVSNRFSGSKSGNTASLTISGLQAEDEADYYCSSYTGSSTLYVFGGGTKLTVL ?
Result: 12.4
